Field: IC50. Provide a value for each of the molecules that follow.
Target: Cbl-b (Homo sapiens)
Assay: Cbl-b activity assay (Cbl-b inhibition assay), TR-FRET of Cbl-b interaction with UbcH5B-Ub
Assay type: biochemical
Details: assay buffer with 100 mM NaCl, 60 nM Src kinase; read-out: Cbl-b activity IC50

* Cc1cc(C(=O)Nc2cccc([C@]3(Cc4nncn4C)CCOC3)c2)nc(C2CC2)n1 (single isomer, unassigned) [Compound 534a] | 100 to 300 nM
* C[C@H]1CN(C)CCN1c1cc2c(c(C(F)(F)F)c1)CN(c1cccc(C3(Cc4nncn4C)COC3)c1)C2=O [Compound 389] | < 100 nM
* Cc1[nH]ncc1-c1cc2c(c(C(F)(F)F)c1)CN(c1cccc([C@H](C)Cc3nncn3C)c1)C2=O [Compound 381] | < 100 nM

Now let's try a different one.
**Query** Print Cbl-b (Homo sapiens) IC50 for C[C@H](Sc1nncn1C)c1cccc(NC(=O)c2cccc(C3CC3)n2)c1 [Compound 72] .
**Result** < 100 nM

* * *

Target: Cbl-b (Homo sapiens, UniProt Q13191)
Assay: Cbl-b inhibition assay (Cbl-b activity assay, FRET, Biological Example 1; 100 mM NaCl, 60 nM Src kinase)
Format: biochemical
Settings: upper bound stated in text lists; read-out: IC50 values in the Cbl-b inhibition assay of Biological Example 1
pIC50: −log10 of the molar value.
assay_endpoint: pIC50

* C[C@H](Cc1nncn1C)c1cccc(NC(=O)c2cc(C(=O)N3C[C@@H](O)C[C@@H]3C)ccn2)c1 | ≥ 5.00
* Cn1cnnc1[C@@H]1C[C@@H]1c1cccc(N2Cc3c(cc(C#N)cc3C(F)(F)F)C2=O)c1 | ≥ 6.52
* Cn1cnnc1[C@@H]1C[C@@H]1c1cccc(NC(=O)c2nc3c(C(F)(F)F)cccc3[nH]2)c1 | ≥ 6.52

Give measured pIC50 for every item shown.
1. C[C@H](Sc1nncn1C)c1cccc(NC(=O)c2cc(C(=O)N3C[C@@H](O)C[C@H]3C)ccn2)c1
2. Cn1cnnc1C(F)(F)C1(c2cccc(N3Cc4c(cc(CN5CC[C@H](F)C5)cc4C(F)(F)F)C3=O)c2)CC1
3. C[C@H](Sc1nncn1C)c1cccc(NC(=O)c2cc(C(F)(F)F)ccn2)c1

**Result**
≥ 5.00
≥ 7.00
≥ 5.00

**Query** Specify measured pIC50 for C[C@H](Cc1nncn1C)c1cccc(NC(=O)c2cc3cc(N4CCN(C)C(=O)C4)ccc3cn2)c1 [Compound 209, 2,2,2-trifluoroacetate] .
**Result** ≥ 7.00

* * *

Entries below carry reported Kd on Cbl-b (residues 36-427) (Homo sapiens, UniProt Q13191).
Sequence (Q13191 36-427): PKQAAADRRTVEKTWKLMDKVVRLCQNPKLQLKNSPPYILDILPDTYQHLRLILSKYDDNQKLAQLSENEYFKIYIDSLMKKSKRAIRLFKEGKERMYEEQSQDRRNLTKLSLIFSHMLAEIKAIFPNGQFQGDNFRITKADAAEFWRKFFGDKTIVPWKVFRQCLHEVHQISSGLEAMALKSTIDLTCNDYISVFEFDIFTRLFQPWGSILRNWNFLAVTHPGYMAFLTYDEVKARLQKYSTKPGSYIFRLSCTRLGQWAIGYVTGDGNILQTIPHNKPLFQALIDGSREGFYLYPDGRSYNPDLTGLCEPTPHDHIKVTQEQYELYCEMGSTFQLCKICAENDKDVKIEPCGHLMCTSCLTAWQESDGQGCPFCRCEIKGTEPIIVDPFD

These recorded examples may help you get a feel for the data.
- Cc1n[nH]c(C)c1-c1cc2c(c(C(F)(F)F)c1)CN(c1cccc(C3(Cc4nncn4C)COC3)c1)C2=O: < 0.1 µM
- Cc1nc2cc([C@H](C)Sc3nncn3C)cc(NC(=O)c3cccc(C(F)(F)F)n3)c2o1 [Compound 130a]: 0.301 to 1 µM
- Cc1cc(C(=O)Nc2cccc([C@@H](C)Cc3nncn3C)c2)nc(C2CC2)n1: 0.301 to 1 µM
- Cn1cnnc1C[C@H](c1cccc(N2Cc3c(cccc3C(F)(F)F)C2=O)c1)C(F)(F)F [Compound 471a]: 0.301 to 1 µM
- C[C@H](Cc1nncn1C)c1cccc(NC(=O)c2cc(C(=O)N3CC[C@](C)(O)C3)ccn2)c1: 1 to 3 µM

// input: 8 compounds below; output: Kd for each
1. Cn1cnnc1[C@H](F)C1(c2cccc(N3Cc4c(cc(CN5CCC(F)CC5)cc4C(F)(F)F)C3=O)c2)COC1 [Example 670b]
2. C[C@H](Cc1nncn1C)c1cccc(N2Cc3c(cc(C(=O)O)cc3C(F)(F)F)C2=O)c1
3. C[C@H](O)CNC(=O)c1ccnc(C(=O)Nc2cccc([C@H](C)Sc3nncn3C)c2)c1
4. Cc1conc1C[C@@H](C)c1cccc(N2Cc3c(cc(C(=O)N4CC[C@H](O)C4)cc3C(F)(F)F)C2=O)c1
5. C[C@H](Sc1nncn1C)c1ccnc(NC(=O)c2cc(C(F)(F)F)c(Cl)cn2)c1
6. C[C@H](Sc1nncn1C)c1cccc(NC(=O)c2cccc(C(F)(F)F)c2F)c1
7. C[C@H](Cc1nncn1C)c1cccc(NC(=O)c2cccc(C(C)(C)C)n2)c1
8. Cn1cnnc1C[C@](C)(F)c1cccc(N2Cc3c(cccc3C(F)(F)F)C2=O)c1 [Compound 298b]

**Result**
1. < 0.1 µM
2. 3 to 10 µM
3. 3 to 10 µM
4. < 0.1 µM
5. > 10 µM
6. 0.301 to 1 µM
7. 0.1 to 0.3 µM
8. 0.1 to 0.3 µM

State recorded Kd for all listed compounds.
1. CC(c1cc2c(c(C(F)(F)F)c1)CN(c1cccc([C@H](C)Cc3nncn3C)c1)C2=O)N1CC[C@H](O)C1 (stereo partly drawn)
2. C[C@H](Cc1nncn1C)c1cccc(N2Cc3c(cc(N[C@H]4CCNC4)cc3C(F)(F)F)C2=O)c1

**Result**
["< 0.1 µM", "< 0.1 µM"]
